# System: U251
assay_readout: GI50

> print(dat)
                               smiles.entry  assay.readout      val
1  COc1cc(Nc2ncccc2C(=O)NCc2cn(Cc3cccc(Oc4ccccc4)c3)nn2)cc(OC)c1           GI50  4.58 µM
2  O=C(NCc1cn(Cc2cccc(Oc3ccccc3)c2)nn1)c1cccnc1Nc1ccc(F)cc1           GI50  7.12 µM
3  COc1ccc(Nc2ncccc2C(=O)NCc2cn(Cc3cccc(Oc4ccccc4)c3)nn2)cc1           GI50  3.91 µM
4  COc1ccc(Nc2ncccc2C(=O)NCc2cn(Cc3cccc(Oc4ccccc4)c3)nn2)c(OC)c1           GI50   3.6 µM
5  O=C(NCc1cn(Cc2cccc(Oc3ccccc3)c2)nn1)c1cccnc1Nc1ccccc1           GI50  3.61 µM
6  O=C(NCc1cn(Cc2cccc(Oc3ccccc3)c2)nn1)c1cccnc1NCc1ccc(Cl)cc1           GI50  2.66 µM
